# System: Acinetobacter baumannii
Positions of bridges follow the written chain, without caps; N, C: chain ends. Non-standard residues stand in square brackets, D forms with d. Residues, ends and D or L forms follow the SMILES beside them. *: point of attachment. Octanoyl = CCCCCCCC(=O)*; Dab = NCC[C@H](N)C(=O)O
property_name: Minimum inhibitory concentration, Ab A ATCC 17978 (µg/mL)
Write the value in µg/mL as a bare number.

Data request: What Minimum inhibitory concentration, Ab A ATCC 17978 value was documented for this compound, CCCCCCCC(=O)N[C@@H](CCN)C(=O)N[C@H](C(=O)N[C@@H](CCN)C(=O)N[C@H]1CCNC(=O)[C@H]([C@@H](C)O)NC(=O)[C@H](CCN)NC(=O)[C@H](CCN)NC(=O)[C@H]([C@@H](C)O)NC(=O)[C@@H](CC(C)C)NC(=O)[C@H](CCN)NC1=O)[C@@H](C)O [Compound 20] (Octanoyl-[Dab]T[Dab][Dab][Dab][dL]T[Dab][Dab]T; lactam 4-C) ?
Data returned: 4

====

# Test system: Acinetobacter baumannii
# condition_details: A. baumannii ATCC 19606
Positions of bridges follow the written chain, without caps; N, C: chain ends. Non-standard residues stand in square brackets, D forms with d. Residues, ends and D or L forms follow the SMILES beside them. *: point of attachment. Benzoyl(4-(4-Cl-Ph)) = O=C(c1ccc(-c2ccc(Cl)cc2)cc1)*; Benzoyl(3,5-Cl2) = O=C(c1cc(Cl)cc(Cl)c1)*; Benzoyl(3-Ph) = O=C(c1cccc(-c2ccccc2)c1)*; Phenylacetyl(3-Cl) = O=C(Cc1cccc(Cl)c1)*; Dab = NCC[C@H](N)C(=O)O; Abu = CC[C@H](N)C(=O)O; Dap = NC[C@H](N)C(=O)O
property_name: MIC (µg/mL)
Write the answer as a number in µg/mL, unit excluded.

Guide cases for MIC, answers given:
{"compound": "CC(C)C[C@H]1NC(=O)[C@H](CCN)NC(=O)[C@@H](NC(=O)[C@H](CN)NC(=O)[C@@H](NC(=O)[C@H](CCN)NC(=O)Cc2cccc(Cl)c2)[C@@H](C)O)CCNC(=O)[C@H]([C@@H](C)O)NC(=O)[C@H](CCN)NC(=O)[C@H](CCN)NC(=O)[C@H]([C@@H](C)O)NC1=O [Compound 61] ({Phenylacetyl(3-Cl)}-[Dab]T[Dap][Dab][Dab][dL]T[Dab][Dab]T; lactam 4-C)", "MIC, µg/mL": 4}
{"compound": "CC(C)C[C@H]1NC(=O)[C@H](CCN)NC(=O)[C@@H](NC(=O)[C@H](CN)NC(=O)[C@@H](NC(=O)[C@H](CCN)NC(=O)c2cc(Cl)cc(Cl)c2)[C@@H](C)O)CCNC(=O)[C@H]([C@@H](C)O)NC(=O)[C@H](CCN)NC(=O)[C@H](CCN)NC(=O)[C@H]([C@@H](C)O)NC1=O [Compound 118] ({Benzoyl(3,5-Cl2)}-[Dab]T[Dap][Dab][Dab][dL]T[Dab][Dab]T; lactam 4-C)", "MIC, µg/mL": 2}
{"compound": "CC[C@@H]1NC(=O)[C@@H](CC(C)C)NC(=O)[C@H](CCN)NC(=O)[C@@H](NC(=O)[C@H](CN)NC(=O)[C@@H](NC(=O)[C@H](CCN)NC(=O)Cc2cccc(Cl)c2)[C@@H](C)O)CCNC(=O)[C@H]([C@@H](C)O)NC(=O)[C@H](CCN)NC(=O)[C@H](CCN)NC1=O [Compound 79] ({Phenylacetyl(3-Cl)}-[Dab]T[Dap][Dab][Dab][dL][Abu][Dab][Dab]T; lactam 4-C)", "MIC, µg/mL": 1}
{"compound": "CC(C)C[C@H]1NC(=O)[C@H](CCN)NC(=O)[C@@H](NC(=O)[C@H](CN)NC(=O)[C@@H](NC(=O)[C@H](CCN)NC(=O)c2ccc(-c3ccc(Cl)cc3)cc2)[C@@H](C)O)CCNC(=O)[C@H]([C@@H](C)O)NC(=O)[C@H](CCN)NC(=O)[C@H](CCN)NC(=O)[C@H](C)NC1=O [Compound 144] ({Benzoyl(4-(4-Cl-Ph))}-[Dab]T[Dap][Dab][Dab][dL]A[Dab][Dab]T; lactam 4-C)", "MIC, µg/mL": 1}

Data request: # MIC lookup, item CC[C@@H]1NC(=O)[C@@H](CC(C)C)NC(=O)[C@H](CCN)NC(=O)[C@@H](NC(=O)[C@H](CN)NC(=O)[C@@H](NC(=O)[C@H](CCN)NC(=O)c2cccc(-c3ccccc3)c2)[C@@H](C)O)CCNC(=O)[C@H]([C@@H](C)O)NC(=O)[C@H](CCN)NC(=O)[C@H](CCN)NC1=O [Compound 138] ({Benzoyl(3-Ph)}-[Dab]T[Dap][Dab][Dab][dL][Abu][Dab][Dab]T; lactam 4-C)
Data returned: 1
